The measurements presented in this section are drawn from patent US20210317231A1.

- Target Entity: T1, cynomolgus monkey 5T4 antigen (cynomolgus monkey, UniProt Q4R8Y9 35-420)
- T1 construct: whole, on cells; also called cyno 5T4
- T1 sequence (looked up): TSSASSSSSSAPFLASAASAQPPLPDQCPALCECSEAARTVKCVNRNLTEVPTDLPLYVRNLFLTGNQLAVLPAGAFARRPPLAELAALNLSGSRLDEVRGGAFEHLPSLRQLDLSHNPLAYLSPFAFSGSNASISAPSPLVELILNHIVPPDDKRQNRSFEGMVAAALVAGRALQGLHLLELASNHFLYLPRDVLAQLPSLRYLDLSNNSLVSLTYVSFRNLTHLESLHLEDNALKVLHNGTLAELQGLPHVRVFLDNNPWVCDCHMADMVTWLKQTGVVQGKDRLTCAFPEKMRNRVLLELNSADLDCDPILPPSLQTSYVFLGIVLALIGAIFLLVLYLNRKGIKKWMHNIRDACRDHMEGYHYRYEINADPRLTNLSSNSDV
- Assay Name: flow cytometry, CHOZN cells expressing cyno 5T4
Examples of binders with documented EC50 follow.
Readout Kind: EC50 (µg/mL)

1) humanized anti-5T4 antibody 833a with HC-41C mutation (antibody, human IgG1, kappa, V domains shown) VH: EVQLVESGGGLIQPGGSLRLSCAASGIDLSHYVVGWVRQACGKGLEWVSIIYGSGRTYYANWAKGRFTISKDNSKNTLYVRMNSLRAEDTAVYYCARDASVSVYYWGYFDLWGQGTLVTVSS VL: AYDMTQSPSSVSASVGDRVTITCQASQSIGSELAWYQQKPGKAPKLLIYRASTLESGVPSRFSGSGSGTDFTLTISSLQPEDFATYYCQQGYTYSEIDNAFGGGTKVEIKR :: 0.12
2) humanized anti-5T4 antibody 789c with HC-41C mutation (antibody, V domains shown) VH: QSVEESGGGLVQPGGSLRLSCAASGFSLSSYWMSWVRQACGKGLEWIGIIAGRGSTYYASWAKGRFTISRDNSKNTLYLQMNSLRAEDTAVYYCARVSSIYYTFNLWGQGTLVTVSS VL: DIVMTQSPDSLAVSLGERATINCQSSQSVYSNNELSWYQQKPGQPPKLLIYYASTLASGVPDRFSGSGSGTDFTLTISSLQAEDVAVYYCQGSYYSGSGWYYAFGGGTKLEIKR :: 0.21
3) prior art anti-5T4 antibody H8 (H8 humanized variant 1) (antibody, human IgG1, kappa, V domains shown) VH: QVQLVQSGAEVKKPGASVKVSCKASGYSFTGYYMHWVKQSPGQGLEWIGRINPNNGVTLYNQKFKDRVTMTRDTSISTAYMELSRLRSDDTAVYYCARSTMITNYVMDYWGQGTLVTVSS VL: DIVMTQSPDSLAVSLGERATINCKASQSVSNDVAWYQQKPGQSPKLLISYTSSRYAGVPDRFSGSGSGTDFTLTISSLQAEDVAVYFCQQDYNSPPTFGGGTKLEIKR :: 1.99
